B1: Tyrosine-protein kinase BTK, residues 215 to 273; numbered along this chain, Q06187 (parent)
chain: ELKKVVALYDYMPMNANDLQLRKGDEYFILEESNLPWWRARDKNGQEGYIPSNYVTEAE

- Variants of: B1
- assay summary: abundance fitness (aPCA) (normalised: wild type 0, dead -1); higher = more abundant; growth selection in yeast, the domain comes from the species named
- condition details: Homo sapiens
readout kind: abundance fitness
Answers are plain numbers.

INSERT INTO assay_data (mutation_code, readout_kind, value) VALUES
  ('V55F', 'abundance fitness', -0.318);

Provide each entry's abundance fitness from the list below.
1. Y49M
2. Y54P
3. Y54D

0.023
-0.93
-0.562
